- System: MS2 coat protein
- protocol description: apparent KD of MS2 coat protein; designed switch direction (-1 OFF switch, 1 ON switch): 1; higher = weaker reporter binding
- reported conditions: input ligand: FMN 200 uM
measurement name: apparent KD of MS2 coat protein (nM)
Provide only the numeric value, understood in nM.

Exercise: Request - read-out apparent KD of MS2 coat protein | tested on MS2 coat protein | sequence GUAACAUGACGAGGAUAUGGAACAUGAGGAUCACCCAUGUAUGUUCCAUAACGCGAAUAAAGAAUCCAGAAGGCGUCGUGAAAU [Mat - Same State NG 2 - JL mod - D33] (Eterna round: R96, puzzle: Same State NG 2)
Solution: 22.1

Exercise: Now consider GGAGCCGGCCUAGGAUAUUUCAUAAACAAACAUGAGGAUCACCCAUGUAGGCCAGAAGGCCUUGGGAAGAAGGAGGUCGGCUCC [Loop Effect - C27] (Eterna round: R96, puzzle: Same State NG 2) and answer again.
Solution: 22.1
